Test system: E. cloacae 700323
Assay: MIC determination, broth microdilution
Assay type: cell-based
Conditions: Enterobacter cloacae, 37° C., 18-24 hours, read-out: Strain 6 MIC
Protocol: Compounds of this invention were tested for antimicrobial activity by determining minimum inhibitory concentrations (MICs, in μg/mL) using the broth microdilution method according to the guidelines of the Clinical Laboratories and Standards Institute (“Methods for Dilution Antimicrobial Susceptibility Tests for Bacteria that Grow Aerobically”, Approved standard, 7th ed., Clinical and Laboratory Standards Institute (CLSI) Document M7-A8, Wayne, Pa., USA, 2009.). […]
reported-endpoint: MIC

Illustrative cases are given below, each with its answer.
Enquiry: Which MIC value is on record for CC1(C)[C@H](NC(=O)/C(=N\O[C@@H](COc2ccc(C(=N)N[C@H]3CCNC3)cc2)C(=O)O)c2nc(N)sc2Cl)C(=O)N1OS(=O)(=O)O ?
Return: 4 µg/mL

Enquiry: Which MIC value is on record for CC1(C)[C@H](NC(=O)/C(=N\O[C@@H](COc2ccc(C(=N)N[C@@H]3CCNC3)cc2)C(=O)O)c2nc(N)sc2Cl)C(=O)N1OS(=O)(=O)O ?
Return: 4 µg/mL

Enquiry: Which MIC value is on record for C[C@H]1[C@H](NC(=O)/C(=N\O[C@@H](COc2ccc(C(=N)N[C@H]3CCCNC3)cc2)C(=O)O)c2nc(N)sc2Cl)C(=O)N1S(=O)(=O)O ?
Return: 32 µg/mL

Others:
Enquiry: Which MIC value is on record for C[C@H]1[C@H](NC(=O)/C(=N\OC(C)(C)C(=O)O)c2csc(N)n2)C(=O)N1S(=O)(=O)O [AZT, Aztreonam, reference compound] ?
Return: > 64 µg/mL

Enquiry: Which MIC value is on record for CC1(C)[C@H](NC(=O)/C(=N\O[C@@H](COc2ccc(C(=N)N[C@@H]3CCCNC3)cc2)C(=O)O)c2nsc(N)n2)C(=O)N1OS(=O)(=O)O ?
Return: 64 µg/mL

Enquiry: Which MIC value is on record for CC1(C)[C@H](NC(=O)/C(=N\O[C@@H](COc2ccc(C(=N)N[C@@H]3CCNC3)cc2)C(=O)O)c2nsc(N)n2)C(=O)N1OS(=O)(=O)O ?
Return: 8 µg/mL

---

# reported MIC; entries follow
Tested on: P. aeruginosa 9027
Assay: MIC determination, broth microdilution
Format: cell-based
Conditions: Pseudomonas aeruginosa, 37° C., 18-24 hours, read-out: Strain 10 MIC
Quick reminder: number only, in µg/mL, skip the unit.

Enquiry: Which MIC value is on record for CC1(C)[C@H](NC(=O)/C(=N\O[C@@H](COc2ccc(C(=N)NC3CCNCC3)cc2)C(=O)O)c2nsc(N)n2)C(=O)N1OS(=O)(=O)O ?
Return: 1

Enquiry: Which MIC value is on record for CC1(C)[C@H](NC(=O)/C(=N\O[C@@H](COc2ccc(C(=N)NC3CCNCC3)cc2)C(=O)O)c2nc(N)sc2Cl)C(=O)N1OS(=O)(=O)O ?
Return: 2

Enquiry: Which MIC value is on record for CC1(C)[C@H](NC(=O)/C(=N\O[C@@H](COc2ccc(C(=N)N[C@H]3CCNC3)cc2)C(=O)O)c2nsc(N)n2)C(=O)N1OS(=O)(=O)O ?
Return: 0.5

Enquiry: Which MIC value is on record for C[C@H]1[C@H](NC(=O)/C(=N\OC(C)(C)C(=O)O)c2csc(N)n2)C(=O)N1S(=O)(=O)O [AZT, Aztreonam, reference compound] ?
Return: 16

Enquiry: Which MIC value is on record for CC1(C)[C@H](NC(=O)/C(=N\O[C@@H](COc2ccc(C(=N)N[C@@H]3CCCNC3)cc2)C(=O)O)c2nc(N)sc2Cl)C(=O)N1OS(=O)(=O)O ?
Return: 1

---

# reported MIC; entries follow
Test system: K. pneumoniae clinical isolate
Assay: MIC determination, broth microdilution
Type: cell-based
Conditions: Klebsiella pneumoniae, 37° C., 18-24 hours, read-out: Strain 3 MIC
Quick reminder: number only, in µg/mL, skip the unit.

Enquiry: Lookup: MIC / K. pneumoniae clinical isolate / CC1(C)[C@H](NC(=O)/C(=N\O[C@@H](COc2ccc(C(=N)N[C@H]3CCNC3)cc2)C(=O)O)c2nsc(N)n2)C(=O)N1OS(=O)(=O)O
Return: 1

Enquiry: Lookup: MIC / K. pneumoniae clinical isolate / CC1(C)[C@H](NC(=O)/C(=N\O[C@@H](COc2ccc(C(=N)N[C@@H]3CCCNC3)cc2)C(=O)O)c2nsc(N)n2)C(=O)N1OS(=O)(=O)O
Return: 8

Enquiry: Lookup: MIC / K. pneumoniae clinical isolate / C[C@H]1[C@H](NC(=O)/C(=N\O[C@@H](COc2ccc(C(=N)N[C@H]3CCCNC3)cc2)C(=O)O)c2nc(N)sc2Cl)C(=O)N1S(=O)(=O)O
Return: 32

Others:
Enquiry: Lookup: MIC / K. pneumoniae clinical isolate / CC1(C)[C@H](NC(=O)/C(=N\O[C@@H](COc2ccc(C(=N)NC3CCNCC3)cc2)C(=O)O)c2nc(N)sc2Cl)C(=O)N1OS(=O)(=O)O
Return: 4

Enquiry: Lookup: MIC / K. pneumoniae clinical isolate / CC1(C)[C@H](NC(=O)/C(=N\O[C@@H](COc2ccc(C(=N)N[C@@H]3CCNC3)cc2)C(=O)O)c2nsc(N)n2)C(=O)N1OS(=O)(=O)O
Return: 4

Enquiry: Lookup: MIC / K. pneumoniae clinical isolate / CC1(C)[C@H](NC(=O)/C(=N\O[C@@H](COc2ccc(C(=N)N[C@@H]3CCNC3)cc2)C(=O)O)c2nc(N)sc2Cl)C(=O)N1OS(=O)(=O)O
Return: 1

---

# reported MIC; entries follow
Test system: K. pneumoniae clinical isolate
Test: MIC determination, broth microdilution
Format: cell-based
Conditions: Klebsiella pneumoniae, 37° C., 18-24 hours, read-out: Strain 3 MIC
Quick reminder: number only, in µg/mL, skip the unit.

Illustrative cases are given below, each with its answer.
Enquiry: Which MIC value is on record for CC1(C)[C@H](NC(=O)/C(=N\O[C@@H](COc2ccc(C(=N)N[C@H]3CCCNC3)cc2)C(=O)O)c2nc(N)sc2Cl)C(=O)N1OS(=O)(=O)O [Example 11] ?
Return: 32

Enquiry: Which MIC value is on record for C[C@H]1[C@H](NC(=O)/C(=N\OC(C)(C)C(=O)O)c2csc(N)n2)C(=O)N1S(=O)(=O)O [AZT, Aztreonam, reference compound] ?
Return: 64

Enquiry: Which MIC value is on record for CC1(C)[C@H](NC(=O)/C(=N\O[C@@H](COc2ccc(C(=N)N[C@@H]3CCCNC3)cc2)C(=O)O)c2nc(N)sc2Cl)C(=O)N1OS(=O)(=O)O [Example 3] ?
Return: 2

Enquiry: Which MIC value is on record for CC1(C)[C@H](NC(=O)/C(=N\O[C@@H](COc2ccc(C(=N)NC3CNC3)cc2)C(=O)O)c2nc(N)sc2Cl)C(=O)N1OS(=O)(=O)O [Example 8] ?
Return: 8

Enquiry: Which MIC value is on record for CC1(C)[C@H](NC(=O)/C(=N\O[C@@H](COc2ccc(C(=N)NC3CNC3)cc2)C(=O)O)c2nsc(N)n2)C(=O)N1OS(=O)(=O)O [Example 7] ?
Return: 2

Others:
Enquiry: Which MIC value is on record for CC1(C)[C@H](NC(=O)/C(=N\O[C@@H](COc2ccc(C(=N)NC3CCNCC3)cc2)C(=O)O)c2nsc(N)n2)C(=O)N1OS(=O)(=O)O [Example 2] ?
Return: 16

Enquiry: Which MIC value is on record for CC1(C)[C@H](NC(=O)/C(=N\O[C@@H](COc2ccc(C(=N)N[C@H]3CCNC3)cc2)C(=O)O)c2nc(N)sc2Cl)C(=O)N1OS(=O)(=O)O [Example 5] ?
Return: 1

---

# reported MIC; entries follow
System: E. cloacae 700323
Test: MIC determination, broth microdilution
Type: cell-based
Conditions: Enterobacter cloacae, 37° C., 18-24 hours, read-out: Strain 6 MIC
Protocol: Compounds of this invention were tested for antimicrobial activity by determining minimum inhibitory concentrations (MICs, in μg/mL) using the broth microdilution method according to the guidelines of the Clinical Laboratories and Standards Institute (“Methods for Dilution Antimicrobial Susceptibility Tests for Bacteria that Grow Aerobically”, Approved standard, 7th ed., Clinical and Laboratory Standards Institute (CLSI) Document M7-A8, Wayne, Pa., USA, 2009.). […]
Quick reminder: number only, in µg/mL, skip the unit.

Enquiry: Lookup: MIC / E. cloacae 700323 / CC1(C)[C@H](NC(=O)/C(=N\O[C@@H](COc2ccc(C(=N)NC3CNC3)cc2)C(=O)O)c2nc(N)sc2Cl)C(=O)N1OS(=O)(=O)O
Return: 8

Enquiry: Lookup: MIC / E. cloacae 700323 / CC1(C)[C@H](NC(=O)/C(=N\O[C@@H](COc2ccc(C(=N)N[C@H]3CCCNC3)cc2)C(=O)O)c2nc(N)sc2Cl)C(=O)N1OS(=O)(=O)O
Return: 64

Enquiry: Lookup: MIC / E. cloacae 700323 / CC1(C)[C@H](NC(=O)/C(=N\O[C@@H](COc2ccc(C(=N)NC3CCNCC3)cc2)C(=O)O)c2nsc(N)n2)C(=O)N1OS(=O)(=O)O
Return: 64

API: the following record is the query input.
Enquiry: Lookup: MIC / E. cloacae 700323 / CC1(C)[C@H](NC(=O)/C(=N\O[C@@H](COc2ccc(C(=N)N[C@H]3CCNC3)cc2)C(=O)O)c2nsc(N)n2)C(=O)N1OS(=O)(=O)O
Return: 32

All values here come from patent US20230295149A1.
